Measured LD50 of individual entries
measurement-notes: oral acute toxicity in mice (LD50)
reported-conditions: mouse, in vivo; oral, mice; read-out: LD50 (dose which kills one-half of the animals)
Unit mg/kg implied. Number only.

These recorded examples may help you get a feel for the data.
In [3]: df
Out[3]:
                                   compound  measurement
0  O=C(O)c1cc(-c2cccc(C(F)(F)F)c2)ns1 [R=3-CF3, X=H]          201
1  O=C(O)c1snc(-c2cccc(C(F)(F)F)c2)c1Cl [R=3-CF3, X=Cl]          138
2  Nc1c(-c2cccc(C(F)(F)F)c2)nsc1C(=O)O [R=3-CF3, R^1=H]          798

Next compound, LD50 to be filled in.
Please give the documented LD50 of O=C(O)c1snc(-c2cccc(C(F)(F)F)c2)c1O [R=3-CF3, X=OH]
727
